Recorded pIC50 for the following molecules
Target: IL-1RtI (Homo sapiens, UniProt P14778)
Construct: made in house; host or cells: recombinant host cells (one form soluble from baculovirus transformed host cells; another PIG-tailed and cleaved from the cell surface)
Sequence (P14778 18-336): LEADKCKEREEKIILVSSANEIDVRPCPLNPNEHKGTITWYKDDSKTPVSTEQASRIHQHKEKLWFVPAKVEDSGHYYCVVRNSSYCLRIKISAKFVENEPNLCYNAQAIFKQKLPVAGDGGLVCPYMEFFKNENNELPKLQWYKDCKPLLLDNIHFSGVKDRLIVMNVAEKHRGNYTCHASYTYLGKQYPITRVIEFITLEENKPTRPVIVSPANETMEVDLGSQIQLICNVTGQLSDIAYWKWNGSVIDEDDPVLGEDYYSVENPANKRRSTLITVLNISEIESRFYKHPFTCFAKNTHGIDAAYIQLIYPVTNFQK
Experiment: Inhibition of 125I-IL-1α binding to IL-1RtI (Example 3)
Conditions: inhibition of 125I-IL-1α binding to IL-1RtI; soluble peptide unless marked *
pIC50: −log10 of the molar value. Where a SMILES comes first, the peptide text is derived from it. [ ]: non-standard residue; d: D form. Bpa = N[C@@H](Cc1ccc(C(=O)c2ccccc2)cc1)C(=O)O; Aze = O=C(O)[C@@H]1CCN1

Known results for molecules:
CC(=O)N[C@@H](Cc1ccccc1)C(=O)N[C@@H](CCC(=O)O)C(=O)N[C@@H](Cc1ccc(C(=O)c2ccccc2)cc1)C(=O)N[C@H](C(=O)N1CCC[C@H]1C(=O)NCC(=O)N[C@@H](Cc1ccc(O)cc1)C(=O)N[C@@H](Cc1ccc(O)cc1)C(=O)N[C@@H](CCC(N)=O)C(=O)N1CC[C@H]1C(=O)N[C@@H](Cc1ccc(O)cc1)C(N)=O)[C@@H](C)O [AcFE--Bpa--TPGYYQJY--NH2] (Ac-FE[Bpa]TPGYYQ[Aze]Y-NH2)	≥ 4.00
CC(C)C[C@H](NC(=O)[C@@H]1CCCN1C(=O)[C@H](CC(C)C)NC(=O)[C@H](C)NC(=O)[C@H](Cc1ccc(O)cc1)NC(=O)[C@@H]1CCN1C(=O)[C@H](CCC(N)=O)NC(=O)[C@H](Cc1c[nH]c2ccccc12)NC(=O)[C@H](Cc1ccc(O)cc1)NC(=O)[C@@H](NC(=O)[C@H](Cc1ccccc1)NC(=O)[C@@H](N)[C@@H](C)O)C(C)C)C(=O)O [TFVYWQJYALPL] (H-TFVYWQ[Aze]YALPL-OH)	≥ 4.00

Item: C[C@@H](O)[C@H](NC(=O)[C@H](Cc1c[nH]c2ccccc12)NC(=O)[C@H](CCC(=O)O)NC(=O)[C@@H](N)Cc1ccccc1)C(=O)NCC(=O)NCC(=O)N[C@@H](Cc1ccc(O)cc1)C(=O)N[C@@H](Cc1c[nH]c2ccccc12)C(=O)N[C@@H](CCC(N)=O)C(=O)N1CC[C@H]1C(=O)N[C@@H](Cc1ccc(O)cc1)C(N)=O [FEWTGGYWQJY--NH2] (H-FEWTGGYWQ[Aze]Y-NH2) | pIC50: ≥ 4.00

Notebook: C[C@@H](O)[C@H](NC(=O)[C@H](Cc1ccc(C(=O)c2ccccc2)cc1)NC(=O)[C@H](CCC(=O)O)NC(=O)[C@@H](N)Cc1ccccc1)C(=O)N1CCC[C@H]1C(=O)NCC(=O)N[C@@H](Cc1ccc(O)cc1)C(=O)N[C@@H](Cc1ccc(O)cc1)C(=O)N[C@@H](CCC(N)=O)C(=O)N1CC[C@H]1C(=O)N[C@@H](Cc1ccc(O)cc1)C(N)=O [FE--Bpa--TPGYYQJY--NH2] (H-FE[Bpa]TPGYYQ[Aze]Y-NH2) , pIC50 read as < 4.00

###

Biological target: IL-1 induced down-regulation of the epidermal growth factor (EGF) receptor in normal human dermal fibroblasts (NHDF) (Homo sapiens)
Sequence (P14778 18-569): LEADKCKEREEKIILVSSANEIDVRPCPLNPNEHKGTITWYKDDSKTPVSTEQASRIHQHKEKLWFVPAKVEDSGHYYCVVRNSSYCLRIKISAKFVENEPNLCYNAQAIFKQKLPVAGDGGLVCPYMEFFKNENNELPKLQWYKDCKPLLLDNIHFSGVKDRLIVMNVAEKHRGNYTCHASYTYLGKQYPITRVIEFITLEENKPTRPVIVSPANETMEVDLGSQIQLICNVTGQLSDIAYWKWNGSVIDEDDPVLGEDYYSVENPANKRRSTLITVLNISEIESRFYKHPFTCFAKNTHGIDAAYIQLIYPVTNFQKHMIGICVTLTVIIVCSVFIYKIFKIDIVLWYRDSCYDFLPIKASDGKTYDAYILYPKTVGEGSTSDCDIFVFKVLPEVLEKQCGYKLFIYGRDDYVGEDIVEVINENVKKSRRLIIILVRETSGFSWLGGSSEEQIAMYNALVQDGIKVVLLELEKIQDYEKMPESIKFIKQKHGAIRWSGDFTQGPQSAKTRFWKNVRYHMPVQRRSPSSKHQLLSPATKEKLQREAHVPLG
Assay: Epidermal Growth Factor Receptor Down Regulation Assay
Details: 37° C., in the presence of IL-1α, 125I-labeled EGF binding, read-out: IC50 (approximate concentration which blocked 50% of the IL-1 induced down regulation of the EGF receptor)
Where a SMILES comes first, the peptide text is derived from it. [ ]: non-standard residue; d: D form. Aze = O=C(O)[C@@H]1CCN1
Quick list: IC50 per entry.

Guide cases for IC50, answers given:
CC(=O)N[C@@H](Cc1ccccc1)C(=O)N[C@@H](CCC(=O)O)C(=O)N[C@@H](Cc1c[nH]c2ccccc12)C(=O)N[C@H](C(=O)N1CCC[C@H]1C(=O)NCC(=O)N[C@@H](Cc1ccc(O)cc1)C(=O)N[C@@H](Cc1c[nH]c2ccccc12)C(=O)N[C@@H](CCC(N)=O)C(=O)N1CC[C@H]1C(=O)N[C@@H](Cc1ccc(O)cc1)C(N)=O)[C@@H](C)O [AcFEWTPGYWQJY--NH2] (Ac-FEWTPGYWQ[Aze]Y-NH2)	≤ 100 µM
CC(=O)N[C@@H](Cc1ccccc1)C(=O)N[C@@H](CCC(=O)O)C(=O)N[C@@H](Cc1c[nH]c2ccccc12)C(=O)N[C@H](C(=O)N1CCC[C@H]1C(=O)N[C@H](C)C(=O)N[C@@H](Cc1c[nH]c2ccccc12)C(=O)N[C@@H](Cc1ccc(O)cc1)C(=O)N[C@@H](CCC(N)=O)C(=O)N1CC[C@H]1C(=O)N[C@@H](Cc1ccc(O)cc1)C(N)=O)[C@@H](C)O [AcFEWTPaWYQJY--NH2] (Ac-FEWTP[dA]WYQ[Aze]Y-NH2)	≤ 100 µM

Please look at the following molecule next.
So for CC(C)C[C@H](NC(=O)[C@@H]1CCCN1C(=O)[C@H](CC(C)C)NC(=O)[C@H](C)NC(=O)[C@H](Cc1ccc(O)cc1)NC(=O)[C@@H]1CCN1C(=O)[C@H](CCC(N)=O)NC(=O)[C@H](Cc1ccc(O)cc1)NC(=O)[C@H](Cc1ccc(O)cc1)NC(=O)CNC(=O)[C@@H]1CCCN1C(=O)[C@@H](NC(=O)[C@H](Cc1c[nH]c2ccccc12)NC(=O)[C@H](CCC(=O)O)NC(=O)[C@@H](N)Cc1ccccc1)[C@@H](C)O)C(=O)O [FEWTPGYYQJYALPL] (H-FEWTPGYYQ[Aze]YALPL-OH) , the logged IC50 turned out to be ≤ 0.5 µM

Reference source for all entries: patent US5861476A
